// provenance: patent US20250242041A1

// EC50 lookup, one value per entry
# Target under test: T1, human αvβ6 on 293F:huβ6 cells (human, UniProt P06756 31-1048; P18564 22-788)
# T1 chain 1: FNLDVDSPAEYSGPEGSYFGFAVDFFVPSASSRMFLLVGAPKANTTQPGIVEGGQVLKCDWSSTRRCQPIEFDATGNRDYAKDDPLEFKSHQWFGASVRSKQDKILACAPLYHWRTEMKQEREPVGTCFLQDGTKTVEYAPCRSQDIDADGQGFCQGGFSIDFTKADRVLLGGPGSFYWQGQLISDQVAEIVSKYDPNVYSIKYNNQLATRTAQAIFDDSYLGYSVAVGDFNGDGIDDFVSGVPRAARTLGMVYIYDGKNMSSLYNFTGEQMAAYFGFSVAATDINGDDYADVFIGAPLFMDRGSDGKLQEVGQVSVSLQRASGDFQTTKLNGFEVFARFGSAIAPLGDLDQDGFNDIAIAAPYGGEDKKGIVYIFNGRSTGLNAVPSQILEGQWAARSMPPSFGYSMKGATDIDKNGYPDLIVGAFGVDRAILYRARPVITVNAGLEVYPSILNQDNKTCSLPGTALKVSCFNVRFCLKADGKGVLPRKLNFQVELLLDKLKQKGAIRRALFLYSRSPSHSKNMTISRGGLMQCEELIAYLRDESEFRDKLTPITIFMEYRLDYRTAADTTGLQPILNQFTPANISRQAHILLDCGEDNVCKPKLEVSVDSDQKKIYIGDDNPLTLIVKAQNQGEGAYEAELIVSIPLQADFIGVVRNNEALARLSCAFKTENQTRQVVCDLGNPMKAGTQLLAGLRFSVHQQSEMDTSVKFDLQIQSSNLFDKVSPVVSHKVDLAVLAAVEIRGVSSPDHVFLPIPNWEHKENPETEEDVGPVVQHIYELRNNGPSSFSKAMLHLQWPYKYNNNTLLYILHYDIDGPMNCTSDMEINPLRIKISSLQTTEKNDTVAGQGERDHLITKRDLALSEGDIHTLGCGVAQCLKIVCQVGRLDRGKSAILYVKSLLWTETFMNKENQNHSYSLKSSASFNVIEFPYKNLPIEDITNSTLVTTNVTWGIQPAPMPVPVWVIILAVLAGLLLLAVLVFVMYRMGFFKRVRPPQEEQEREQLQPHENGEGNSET
# T1 chain 2: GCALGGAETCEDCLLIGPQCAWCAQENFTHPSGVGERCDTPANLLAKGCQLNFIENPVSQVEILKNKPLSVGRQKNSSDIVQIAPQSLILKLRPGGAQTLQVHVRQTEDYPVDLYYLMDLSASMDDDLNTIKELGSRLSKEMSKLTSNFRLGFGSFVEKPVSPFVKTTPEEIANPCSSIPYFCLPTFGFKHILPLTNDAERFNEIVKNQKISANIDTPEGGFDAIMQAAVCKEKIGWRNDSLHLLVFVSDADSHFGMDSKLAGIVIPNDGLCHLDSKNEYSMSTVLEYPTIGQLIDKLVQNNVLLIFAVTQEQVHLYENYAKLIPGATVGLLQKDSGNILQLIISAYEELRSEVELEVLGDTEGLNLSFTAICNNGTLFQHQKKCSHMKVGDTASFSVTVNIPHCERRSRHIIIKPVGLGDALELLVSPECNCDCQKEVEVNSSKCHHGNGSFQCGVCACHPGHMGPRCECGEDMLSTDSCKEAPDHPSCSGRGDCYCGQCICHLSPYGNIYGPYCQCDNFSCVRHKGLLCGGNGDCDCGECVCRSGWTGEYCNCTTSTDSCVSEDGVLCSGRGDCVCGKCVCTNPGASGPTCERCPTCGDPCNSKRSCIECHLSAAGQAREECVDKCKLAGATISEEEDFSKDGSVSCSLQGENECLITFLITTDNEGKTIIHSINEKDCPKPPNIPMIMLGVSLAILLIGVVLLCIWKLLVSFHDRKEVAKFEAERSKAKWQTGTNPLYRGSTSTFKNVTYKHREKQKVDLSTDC
# Assay method text: competition binding on 293F cells; 2nM m2A2-AF647 competitor
Number only, in nM; omit the unit.

Binder	Unit text	EC50
h2A2 HCLH (antibody, V domains shown) VH: QFQLVQSGAEVKKPGASVKVSCKASGYSFTDYNVNWVRQAPGQGLEWIGVINPKYGTTRYNQKFKGRATLTVDKSTSTAYMELSSLRSEDTAVYYCTRGLNAWDYWGQGTLVTVSS VL: DIQMTQSPSSLSASVGDRVTITCGASENIYGALNWYQQKPGKAPKLLIYGATNLADGVPSRFSGSGSGRDFTFTISSLQPEDIATYYCQNVLTTPYTFGQGTKLEIKR	nM	30
h2A2 HALD (antibody, V domains shown) VH: QFQLVQSGAEVKKPGASVKVSCKASGYSFTDYNVNWVRQAPGQGLEWMGVINPKYGTTRYNQKFKGRVTMTRDTSTSTVYMELSSLRSEDTAVYYCTRGLNAWDYWGQGTLVTVSS VL: DIQMTQSPSSLSASVGDRVTITCGASENIYGALNWYQQKPGKAPKLLIYGATNLADGVPSRFSGSGSGTDYTFTISSLQPEDIATYYCQNVLTTPYTFGQGTKLEIKR	nM	12
h2A2 HCLB (antibody, V domains shown) VH: QFQLVQSGAEVKKPGASVKVSCKASGYSFTDYNVNWVRQAPGQGLEWIGVINPKYGTTRYNQKFKGRATLTVDKSTSTAYMELSSLRSEDTAVYYCTRGLNAWDYWGQGTLVTVSS VL: DIQMTQSPSSLSASVGDRVTITCGASENIYGALNWYQQKPGKAPKLLIYGATNLADGVPSRFSGSGSGRDYTFTISSLQPEDIATYYCQNVLTTPYTFGQGTKLEIKR	nM	3
h2A2 HALB (antibody, V domains shown) VH: QFQLVQSGAEVKKPGASVKVSCKASGYSFTDYNVNWVRQAPGQGLEWMGVINPKYGTTRYNQKFKGRVTMTRDTSTSTVYMELSSLRSEDTAVYYCTRGLNAWDYWGQGTLVTVSS VL: DIQMTQSPSSLSASVGDRVTITCGASENIYGALNWYQQKPGKAPKLLIYGATNLADGVPSRFSGSGSGRDYTFTISSLQPEDIATYYCQNVLTTPYTFGQGTKLEIKR	nM	8
h2A2 HALG (antibody, V domains shown) VH: QFQLVQSGAEVKKPGASVKVSCKASGYSFTDYNVNWVRQAPGQGLEWMGVINPKYGTTRYNQKFKGRVTMTRDTSTSTVYMELSSLRSEDTAVYYCTRGLNAWDYWGQGTLVTVSS VL: DIQMTQSPSSLSASVGDRVTITCGASENIYGALNWYQQKPGKAPKLLIYGATNLEDGVPSRFSGSGSGRDYTFTISSLQPEDIATYYCQNVLTTPYTFGQGTKLEIKR	nM	1

Task item: Entry c2A2 (antibody, V domains shown) VH: EFQLQQSGPELVKPGASVKISCKASGYSFTDYNVNWVKQSNGKSLEWIGVINPKYGTTRYNQKFKGKATLTVDKPSSTAYMQLNSLTSEDSAVYYCTRGLNAWDYWGQGASVTVSS VL: DIQMTQSPASLSASVGETVTITCGASENIYGALNWYQRKQGKSPQLLIYGATNLADGMSSRFSGSGSGRQYSFKISSLHPDDVATYYCQNVLTTPYTFGGGTKLEIK : reported EC50 = ?
Reply: 3
